# assay.overview: Plasma toxicokinetics after single i.v. bolus
# Assay type: in vivo, Sprague-Dawley rats
# condition.description: male, Sprague-Dawley, rat, plasma, intravenous, 0.1 mg/kg, Anatabine 0.1 mg/kg; male; 2 hr; read-out: Avg. Conc. rat plasma

| compound | concentration at 2 h, ng/mL |
| --- | --- |
| C1=CCC(c2cccnc2)NC1 (racemic) [Anatabine, 1,2,3,6-tetrahydro-[2,3′]bipyridinyl] | 6.3 |

----------
# assay.overview: Plasma toxicokinetics after single i.v. bolus
# Format: in vivo, Sprague-Dawley rats
# condition.description: both sexes, Sprague-Dawley, rat, plasma, intravenous, 0.1 mg/kg, Concentration of anatabine in rat plasma, Anatabine 0.1 mg/kg, Rat Plasma, 1 hr, individual rats
measured.quantity: concentration at 1 h (ng/mL)

| compound | number |
| --- | --- |
| C1=CCC(c2cccnc2)NC1 (racemic) [Anatabine, 1,2,3,6-tetrahydro-[2,3′]bipyridinyl] | 10 |

----------
# assay.overview: Concentration in brain extracts after single i.v. bolus
# Type: in vivo, Sprague-Dawley rats
# condition.description: female, Sprague-Dawley, rat, brain, intravenous, 0.75 mg/kg, anatabine 0.75 mg/kg i.v., 6 hr, Female; read-out: Mean concentration in rat brain extracts

| compound | unit.annotation | concentration at 6 h |
| --- | --- | --- |
| C1=CCC(c2cccnc2)NC1 (racemic) [Anatabine, 1,2,3,6-tetrahydro-[2,3′]bipyridinyl] | ng/g | 21 |

----------
# assay.overview: Plasma pharmacokinetics after oral multi-dose anatabine polacrilex
# Format: in vivo, Sprague-Dawley rats
# condition.description: both sexes, Sprague-Dawley, rat, plasma, po, 6 mg/kg, male and female combined, mean; read-out: t1/2,terminal (converted)

| compound | half-life (h) |
| --- | --- |
| C1=CCC(c2cccnc2)NC1 (racemic) [Anatabine, 1,2,3,6-tetrahydro-[2,3′]bipyridinyl] | 4.53 |

----------
# assay.overview: Plasma pharmacokinetics after oral multi-dose anatabine polacrilex
# Assay type: in vivo, Sprague-Dawley rats
# condition.description: male, Sprague-Dawley, rat, plasma, oral, 2 mg/kg BW, Avg. Conc. of anatabine in plasma, dose group 2, male, 30 min

| molecule | concentration at 30 min, ng/mL |
| --- | --- |
| C1=CCC(c2cccnc2)NC1 (racemic) [Anatabine, 1,2,3,6-tetrahydro-[2,3′]bipyridinyl] | 243 |

----------
# assay.overview: Plasma pharmacokinetics after oral multi-dose anatabine polacrilex
# Type: in vivo, Sprague-Dawley rats
# condition.description: male, Sprague-Dawley, rat, plasma, po, 6 mg/kg, male rats, after dose 3, mean; read-out: Tmax(3)

| compound | Tmax (h) |
| --- | --- |
| C1=CCC(c2cccnc2)NC1 (racemic) [Anatabine, 1,2,3,6-tetrahydro-[2,3′]bipyridinyl] | 2 |

----------
# assay.overview: Plasma pharmacokinetics after oral multi-dose anatabine polacrilex
# Assay type: in vivo, Sprague-Dawley rats
# condition.description: Sprague-Dawley, rat, plasma, po; 6.0 mg/kg, female rats, mean

| molecule | AUC(0-inf) |
| --- | --- |
| C1=CCC(c2cccnc2)NC1 (racemic) [Anatabine, 1,2,3,6-tetrahydro-[2,3′]bipyridinyl] | 3740 ng·h/mL |

----------
# assay.overview: Plasma pharmacokinetics after oral multi-dose anatabine polacrilex
# Format: in vivo, Sprague-Dawley rats
# condition.description: female, Sprague-Dawley, rat, plasma, oral, 0.2 mg/kg BW, Avg. Conc. of anatabine in plasma, dose group 0.2, female, 540 min
# Method: This study consisted of two groups of 8 animals each, 4 males and 4 females. Two formulations were prepared; one for each of the two treatment groups. […] Sample preparation. […] The amount of the test agent in the supernatant was determined by LC/MS/MS. Analysis. Samples were analyzed by LC/MS/MS using an Agilent 6410 mass spectrometer coupled with an Agilent 1200 high pressure liquid chromatography (HPLC) and a CTC PAL chilled autosampler, all controlled by MassHunter software (Agilent). […]
measured.quantity: concentration at 540 min (ng/mL)

| compound | measured.quantity | unit.annotation | number |
| --- | --- | --- | --- |
| C1=CCC(c2cccnc2)NC1 (racemic) [Anatabine, 1,2,3,6-tetrahydro-[2,3′]bipyridinyl] | concentration at 540 min | ng/mL | 34 |
